methodSummary: pharmacokinetic study in SD rats
Format: in vivo
appliedConditions: female, SD, rat, in vivo, po, 5 mg/kg
Description: All animal experiments have been approved by the Institutional Animal Care and Treatment Committee of Sichuan University in China and were carried out in accordance with the approved guidelines. […] Total area under the concentration time curve (AUC), the elimination half-time (t1/2), the peak concentration (Cmax) and the time to reach peak concentration (Tmax) of samples were determined directly from the experimental data using WinNonlin V6.2.1.
measuredQuantity: Tmax
Please append the unit to your numeric answer.

// query What value of Tmax has been reported for the following compound? `C[C@H]1COC2(CCN(c3nc(=O)c4cc(C(F)(F)F)cc([N+](=O)[O-])c4s3)CC2)O1`
// result 15 min
